Source of measurements: the nanobody polyreactivity screen of Harvey et al. (2022)

test: yeast display, Sf9 membrane polyspecificity reagent, FACS + sequencing; frameworks hold sequencing errors
experimentalReadout: polyreactivity (PSR sort gate)

Known polyreactivity (PSR sort gate) results, listed for orientation:
QVQLVESGGGLVQAGGSLRLSCPASGSTFVLNAMGWYSQAPGKERELVAAITGSGSTNYADSVKGRFTISRDNAKNTVYLQMNRLKPEDTAVYYCATAAVYPIPFGYWGQGTQVTVSS low polyreactivity
QVQLVESGGGLVQAGGSLRLSCAASGITFRKYAMGWSRQAPGKERELVAAISAGGGRTFYADSVKGRFTISRDNAKNTVYLQMNSLKPEDTAVYYCNADLGIGYDYWGQGTQVTVSS high polyreactivity
QVQLVESGGGLVQAGGSLRLSCAASGSIFYIYALGWYRQAPGKERELVAAISRSGGRTYYADSVKGRFTISRDNAKNTVYLQMNSLKPEDTGVYYCAARRYTAYDYWGQGTQVTVSS high polyreactivity
QVQLQESGGGLVQAGDSQRLSCAASGNSFRFTHMGWYRQAPGKERELVAASNAGSTTYYADSVKGRFTISRDNAKNTVYLQMKSLKPEDTAVYYCAVYYLGSGTFGYWGQGAQVTVSS high polyreactivity
QVQLVESGGGLVQAGGSLRLSCAASGLIFGYYAMGWYRQAPGKERELVAAISSSGTRTYYADSVKGRFTISRDNAMNTVYLQMNSLKPEDTAVYYCNADSYGSRYEYWGQGTQVTVSS high polyreactivity

Please give polyreactivity (PSR sort gate) for each item listed below.
1. QVQLVESAGGLVQAGGSLRLSCAASGLTFTTYAMGWYRQAPGKERELVAAISRRGSRTYYADSVKGRFTISRDNAKNTVYLQMNSLKPEDTAVYYCNALTGSFKTYSFDYWGQGTQVTVSS
2. QVQLEESGGGLVQAGGRLRLSCAASGNTFQVYAMGWSRQASGTERELVATITSGGSTNYADSVKGRFTISRDNAKNTVYLQMNSQIPDDTAVYYCARRAVYSKRRYDYWGQGTQVTVSS
3. QVQLVESGGGLVQAGGSLRLSCAASGFIFDYYAMGWYRQAPGKERELVAAISGSGTSTYYADSVKGRFTISRDNAKYTVYLQMNSLKPEDTAVYYCSAESDWWSDIGYYWGQGTQVTVSS

high polyreactivity
low polyreactivity
high polyreactivity

Please give polyreactivity (PSR sort gate) for each item listed below.
1. QVQLVESGGGLVQAGGSLRLSCAASGSTFVYSAMGWYRQAPGKERELVAAIRNGDGTNYADSVKGRFTISRDNAMNTVYLQMNSLKPEDTAVYYCAAPQGEYFYVYEFDYWGQGTQVTVSS
2. QVQLVESGAGLVQDGGSLRLICAASGRTFTPYAMGRYRQAPGKEMEFVAAISIVGRTKYADSVKGRFTISRDNAKNTVYLQMNSLKPEDTEVYYCNAQDSRDRKFYWGYTRGHWGQGTQVTVSS
3. QVQLEESGGGLVQAGGSLRLTCAASGFIFKSYTMGWYRQATGKEMELVAAITSTGGGTYYADSVKGRFTISRDNAKNTVYLQMNSLKPEDTAVYYCNARTYVTVDYDFWGQGTQVTVSS

1. low polyreactivity
2. low polyreactivity
3. high polyreactivity
